Target: human 5HT2c receptor (Homo sapiens, UniProt P28335, I156V/I160V, form not given)
Sequence (P28335 1-458 I156V/N158S/I160V): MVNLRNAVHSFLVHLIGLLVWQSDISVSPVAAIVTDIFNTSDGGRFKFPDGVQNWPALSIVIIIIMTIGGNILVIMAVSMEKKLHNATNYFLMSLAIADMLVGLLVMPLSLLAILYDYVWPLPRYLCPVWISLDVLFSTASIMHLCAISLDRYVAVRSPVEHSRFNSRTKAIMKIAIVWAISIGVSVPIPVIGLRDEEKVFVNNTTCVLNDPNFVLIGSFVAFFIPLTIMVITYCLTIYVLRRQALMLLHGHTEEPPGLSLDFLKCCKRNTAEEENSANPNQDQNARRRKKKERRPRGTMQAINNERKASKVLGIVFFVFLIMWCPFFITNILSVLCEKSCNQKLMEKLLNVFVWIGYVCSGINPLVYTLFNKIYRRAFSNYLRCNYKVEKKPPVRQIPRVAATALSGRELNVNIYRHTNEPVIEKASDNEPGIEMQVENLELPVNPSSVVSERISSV
Test: Calcium mobilization (FLIPR) 5HT2c receptor agonist assay in HEK 293 EBNA cells
Assay type: cell-based
Settings: agonist-stimulated calcium release, HEK 293 EBNA cells expressing human 5HT2c receptor, read-out: 5-HT2c EC50 (hVSV)
Quantity name: EC50

Consider the worked cases shown below.
{"columns": ["Molecule", "Observed measurement"],
 "data": [
  ["Fc1cccc(Cl)c1Cc1cc2c(s1)CCNCC2", "< 1 µM"],
  ["Clc1ccc(Cl)c(-c2cc3c(s2)CCNCC3)c1", "> 10 µM"],
  ["Fc1ccc(-c2cc3c(s2)CCNCC3)cc1Cl", "> 10 µM"],
  ["Cc1sc2c3c1CCC3CNCC2 (racemic)", "< 1 µM"],
  ["Brc1cc2c(s1)CCNCC2", "< 0.01 µM"]
]}

Reported EC50 for FC(F)(F)c1cc2c(s1)CCNCC2 was < 0.01 µM

Reported EC50 for COC1CNCCc2sc(Br)cc21 (racemic) was < 1 µM

Reported EC50 for Brc1sc2c3c1CCC3CNCC2 (single isomer, unassigned) [37, Enantiomer 1] was < 1 µM

Reported EC50 for COc1cccc(-c2cc3c(s2)CCNCC3)c1 was < 10 µM

Reported EC50 for CC1CNCCc2sc(Br)c(Br)c21 (single isomer, unassigned) [32, Enantiomer 2] was < 0.1 µM

Reported EC50 for COc1c(Cl)sc2c1CCNCC2 was < 1 µM
